For each of the compounds below, state its growth.
tested on: NCI/ADR-RES ovarian; test: NCI-60 one-dose screen, 48 h (100 = growth as untreated, 0 = no growth, -100 = all killed); details: 10 µM unless noted
This is part of a sample that, as a whole, favours compounds with a hit. Of some 83,000 tested, about 20% had one in any assay.
Give bare numbers, in %.

# example entries with known answers
Reading of growth for N#Cc1ccc(-n2nnc3ccccc32)cc1C#N with NCI/ADR-RES ovarian: 101

Reading of growth for Clc1ccc2c(NCCNc3nc(N4CCCC4)nc4ccccc34)ccnc2c1 with NCI/ADR-RES ovarian: 60.2

Reading of growth for C=CC(=O)Nc1cccc(Nc2nc(Nc3ccc(N4CCN(C(C)=O)CC4)cc3OC)ncc2C(F)(F)F)c1 with NCI/ADR-RES ovarian: 21.3

Reading of growth for O=C(NO)c1ccc(Cn2c(=O)n(CCc3ccccc3)c(=O)c3ccccc32)cc1 with NCI/ADR-RES ovarian: 57.5

Reading of growth for O=C(Cc1ccccc1)Nc1nnc(NC2CCN(c3nnc(NC(=O)Cc4ccccc4)s3)CC2)s1 with NCI/ADR-RES ovarian: 98.4

Reading of growth for Cc1ccccc1N1C(c2ccccc2)=NNC12C=CC(=O)C=C2Cl (centres undefined) with NCI/ADR-RES ovarian: 98.7

Reading of growth for CN1CCN(Cc2ccc(NC(=O)c3[nH]ncc3Nc3ncnc4sc5c(c34)CCCC5)cc2)CC1 with NCI/ADR-RES ovarian: -61.7

Reading of growth for NC[C@@](O)(c1ccc(Cl)cc1)c1ccc(-c2cn[nH]c2)cc1 with NCI/ADR-RES ovarian: 40.9

Reading of growth for Nc1nc(N)c2cc(CNc3ccc(C(=O)NC(CC(=O)O)C(=O)O)cc3)ccc2n1 (centres undefined) with NCI/ADR-RES ovarian: 17.3

Reading of growth for COc1ccc(C2CC(=O)c3c(O)c(OC)c(OC)c(OC)c3O2)c(O)c1 (centres undefined) with NCI/ADR-RES ovarian: 4.44

Record growth per entry; entries follow.
1. Cc1cc(Nc2ncnc3ccc(NC4=NC(C)(C)CO4)cc23)ccc1Oc1ccn2ncnc2c1
2. COc1ccc2c(c1OC)C(=O)O[C@@H]2[C@H]1c2c(c(C#CC#Cc3ccc(F)c(F)c3)c3c(c2OC)OCO3)CCN1C
3. COc1ccc(-c2nocc2-c2cc(OC)c(OC)c(OC)c2)cc1
4. C=CCC(=O)N[C@H](/C=C/C(=O)O)Cc1ccc(-c2cc(Cl)cc(Cl)c2)cc1
5. O=C(CNc1nc(-c2ccc(Cl)cc2)cs1)Nc1ccc(-c2nc3ccccc3s2)cc1
6. C/C(=N\NC(=O)Cn1c(-c2ccc(S(C)(=O)=O)cc2)nc2ccccc21)c1ccc(Cl)cc1
7. N#Cc1c(NC(=O)c2cccs2)[n+]([O-])c2ccc(F)cc2[n+]1[O-]
8. COc1ccc(-c2cc3c(C)nc(N)nc3n(C3CCC(OCCO)CC3)c2=O)cn1 (centres undefined)

1: 63.3; 2: 89.3; 3: -19.5; 4: 107; 5: 94.2; 6: 103; 7: 111; 8: -14.7

Record growth per entry; entries follow.
1. CCCCCCCC(=O)SCC/C=C/[C@@H]1CC(=O)NCc2cccc(n2)C2=N[C@@](C)(CS2)C(=O)N[C@@H](C(C)C)C(=O)N1
2. COc1ccc(C2CC(=O)c3c(O)c(OC)c(OC)c(OC)c3O2)cc1O (centres undefined)
3. CCn1cc(-c2ccnc3[nH]c(-c4cccc(CN(C)C)c4)cc23)c(-c2ccc(NC(=O)N(C)C)cc2)n1

1. 86.7
2. 3.97
3. 72.4

Record growth per entry; entries follow.
1. COc1cc2c3c(c1)nc(C)n3CCC2
2. C=CCn1c(=O)c2cnc(Nc3ccc(N4CCN(C)CC4)cc3)nc2n1-c1cccc(C(C)(C)O)n1
3. O=C(NOC[C@H](O)CO)c1ccc(F)c(F)c1Nc1ccc(I)cc1F

[103, 25.1, 59.2]

Record growth per entry; entries follow.
1. O=C(Cc1ccc(/C=C/C(=O)c2ncc[nH]2)cc1)Nc1ccc(Br)cc1
2. O=C(NC[C@H](O)CO)c1ccncc1Nc1ccc(I)cc1F
3. Nc1c(C(=O)c2ccccc2)sc2nc(-c3cccs3)cc(-c3cccs3)c12
4. O=C(Nc1nc2cccc(-c3ccc(CN4CCS(=O)(=O)CC4)cc3)n2n1)C1CC1

1: 13.4; 2: 58.7; 3: 24.4; 4: 90.3

Record growth per entry; entries follow.
1. Cn1cnc2c(F)c(Nc3ccc(Br)cc3F)c(C(=O)NOCCO)cc21
2. COc1cnc2c(c1)C(=O)c1c-2n(CCCN2CCOCC2)c(=O)c2cc(Cl)ccc12

[69.1, 19.2]

Record growth per entry; entries follow.
1. CNC(=O)c1cccc2cc(Oc3ccnc4cc(OCC5(N)CC5)c(OC)cc34)ccc12
2. CCCc1cc2cc(-n3nc(C)c4c3CC(C)(C)CC4=O)cc(NC3CCC(O)CC3)c2c(=O)[nH]1 (centres undefined)
3. CCOC(=O)c1sc(NC(=O)COc2ccc(/C=C3\Cc4ccc(Cl)cc4C3=O)cc2)nc1C
4. Fc1ccc(NCc2cn(-c3ccccc3)nc2-c2ccc(OCc3ccccc3)cc2)cc1Cl
5. Cc1cccc(C)c1N1C(c2ccccc2)=NNC12C=CC(=O)c1c(O)cccc12 (centres undefined)
6. COc1cnc2c(c1)C(=O)c1c-2n(CCCN2CCC(O)CC2)c(=O)c2cc(Cl)ccc12

[76, 45.5, 93.9, 95.4, 70.3, 28.3]

Record growth per entry; entries follow.
1. COc1cccc2cc(-c3nc(C4CCC(C(=O)O)CC4)n4ncnc(N)c34)[nH]c12 (centres undefined)
2. C=CC[n+]1c(/C=C2\Sc3ccccc3N2C)sc(-c2ccccc2)c1-c1ccccc1
3. O=C(Cn1ccc2ccccc21)Nc1ccc(-c2nc3ccccc3s2)cc1

1. 2.94
2. 85
3. 100
